experiment: Acute toxicity (DL50) in mice
Set-up: species or system souris swiss
recorded.conditions: mouse, in vivo, two independent measurements

compound | u | LD50
CC(C)(N)C#CC=O [composé 6a] | mg/kg | 60
